# tgt: hCAII H94D (Homo sapiens, UniProt P00918, H94D)
# method-summary: biochemical
measured-attribute: Ki (µM)

| compound | measured-attribute | value-reported |
| --- | --- | --- |
| Oc1cccc(O)c1 | Ki | 2300 |
| [O-][n+]1ccccc1S [2e, 2-mercaptopyridine N-oxide] | Ki | 500 |
| Oc1ccccc1S | Ki | 30 |

Values compiled from paper PMC3781179.
